Tested on: M14 melanoma
ASSAY METHOD TEXT: NCI tumour cell line growth inhibition, 48 h
Below, each entry is listed alongside its reported TGI.

>  <COMPOUND>
COc1ccc2c(c1)/C(=C\c1c(C)nc3sc(C)cn13)C(=O)N2

>  <TGI>
> 100 µM

$$$$

Enquiry: For the compound shown here, "O=C(O)CNc1ccc(C(=O)O)cc1" , give the reported TGI.
Return: > 100 µM

Enquiry: Try "Cc1cc(-c2nc3ccccc3s2)ccc1N" next.
Return: > 73.5 µM

Enquiry: Try "CS(=O)(=O)Nc1cccc(-c2cc(-c3ccccc3Cl)c(C#N)c(N)n2)c1" next.
Return: 14.6 µM
